Field: activation. Provide a value for each of the compounds that follow.
biological target: Cellular tumor antigen p53 (Homo sapiens) (UniProt P04637); experiment: Primary qHTS for small molecule compounds that upregulate eGFP-tagged delta133p53alpha (in N-terminal) cells. (AID 2060322); conditions: NCI-H358 eGFP-delta133p53alpha fluorescence, 24 h; hits give high values;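 further: cells pre-induced with doxycycline then dosed without doxycycline; series mostly up to about 56 µM; 0% = DMSO vehicle and 100% = reference activator; nearly all actives have a fitted effect of over 75% in size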
Sequence (P04637 whole entry, looked up): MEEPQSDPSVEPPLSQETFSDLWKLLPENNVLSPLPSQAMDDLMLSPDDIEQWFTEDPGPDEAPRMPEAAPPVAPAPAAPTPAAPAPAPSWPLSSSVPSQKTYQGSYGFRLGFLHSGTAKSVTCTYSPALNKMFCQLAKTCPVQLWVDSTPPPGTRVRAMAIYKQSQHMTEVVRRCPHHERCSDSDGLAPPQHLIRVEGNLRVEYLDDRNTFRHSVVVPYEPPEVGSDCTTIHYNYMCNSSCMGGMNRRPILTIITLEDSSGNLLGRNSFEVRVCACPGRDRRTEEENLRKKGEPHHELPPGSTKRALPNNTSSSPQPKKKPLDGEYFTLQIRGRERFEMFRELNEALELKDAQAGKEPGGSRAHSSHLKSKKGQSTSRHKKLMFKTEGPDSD
Records with an inconclusive call do not appear.
Report only the number, with the unit % understood.

**Query** Give its activation value. Item: CN1[C@@H]2CC[C@H]1CC(NC(=O)n1c(=O)[nH]c3ccccc31)C2 (stereo not given in full)
**Result** -9.21

**Query** Which activation value is on record for C/C(=C\C1CCC(C)C2CCC3(C)OC123)C(=O)O (stereo not given) ?
**Result** 8.04

**Query** Recorded activation for Cc1ncc([N+](=O)[O-])n1C[C@H](O)CN1CCOCC1 , please?
**Result** 2.33

**Query** Recorded activation of CC1(C)CC[C@]2(C(=O)O)CC[C@]3(C)C(=CCC4[C@@]5(C)C[C@@H](O)[C@H](O)C(C)(C)C5CC[C@]43C)[C@@H]2[C@@H]1O (stereo not given in full) , please.
**Result** -0.893

**Query** Which activation is reported for this compound? NS(=O)(=O)c1ccc(NC(=O)Nc2ccc(F)cc2)cc1
**Result** -7.64

----------
experiment: BET inhibitor-based combinations targeting novel dependencies in MECOM-rearranged (r) AML: SET-2 cell line (AID 2202231); conditions: SET-2 AML cells viability, CellTiter-Glo luminescence, 48 h; further: potency means the concentration at half of the fitted maximal effect; nearly all actives have a fitted effect of over 35% in size
Inconclusive results are not listed. Active and inactive are the calls of the source. Calls come from the whole dose curve; as a rule, active = well fitted inhibition curve with a large enough effect; inconclusive = small, poorly fitted or top-dose-only effect; inactive = no such curve, though single readings can be large or run the other way.
PROPERTY_LABEL: Potency

**Query** Field request: Potency | item: CC[C@@]1(O)C(=O)OCc2c1cc1n(c2=O)Cc2cc3c(CN(C)C)c(O)ccc3nc2-1
**Result** 0.0372 µM (active)

**Query** What measured Potency goes with CN1c2ccccc2C(=O)N2CCc3c([nH]c4ccccc34)C21 (stereo not given) ?
**Result** 5.25 µM (active)

**Query** Could you share which Potency value was measured for O=[N+]([O-])c1ccc(Nc2ccccc2-c2ccccc2)c2nonc12 ?
**Result** 20.9 µM (active)

**Query** What value of Potency has been recorded for this entry: CC1(C)CC(=O)c2c(C(F)(F)F)nn(-c3ccc(C(N)=O)c(NC4CCC(O)CC4)c3)c2C1 (stereo not given)
**Result** 0.148 µM (active)

**Query** If you can, please state the reported Potency value of COC(=O)Nc1nc2ccc(C(=O)c3cccs3)cc2[nH]1 .
**Result** 0.209 µM (active)

**Query** What value of measured Potency is listed for Clc1ccccc1C(c1ccccc1)(c1ccccc1)n1ccnc1 ?
**Result** 18.6 µM (active)

**Query** Potency lookup needed for Cc1cccc(Nc2nc(N[C@@H]3CCCC[C@H]3N)ncc2C(N)=O)c1 , thanks.
**Result** 29.5 µM (active)

**Query** Please give the measured Potency for this compound: O=C(Nc1cccc(Cl)c1)Nc1ncc(CCNc2ncnc3ccsc23)s1
**Result** 20.9 µM (active)

**Query** Please give the measured Potency for this compound: CCN(CC)CCNC(=O)c1ccc2nc(-c3ccccc3)c(-c3ccc(CN4CCC(n5c(=O)[nH]c6ccccc65)CC4)cc3)nc2c1
**Result** 8.33 µM (active)

**Query** Entry C=CC(=O)Nc1cccc(Oc2nc(Nc3ccc(N4CCN(C)CC4)cc3OC)ncc2Cl)c1 : reported Potency = ?
**Result** 20.9 µM (active)
